target: 5-lipoxygenase (Rattus norvegicus); construct: The resulting supernatant liquid was used as an enzymatic solution; endogenous in cells; host or cells: rat basophil leukemia-1 (RBL-1) cells, supernatant after sonication; assay: 5-Lipoxygenase activity-inhibiting action (5-HETE biosynthesis, rat basophil leukemia-1 cell supernatant); assay type: biochemical; conditions: Table 3
Sequence (P12527 whole entry): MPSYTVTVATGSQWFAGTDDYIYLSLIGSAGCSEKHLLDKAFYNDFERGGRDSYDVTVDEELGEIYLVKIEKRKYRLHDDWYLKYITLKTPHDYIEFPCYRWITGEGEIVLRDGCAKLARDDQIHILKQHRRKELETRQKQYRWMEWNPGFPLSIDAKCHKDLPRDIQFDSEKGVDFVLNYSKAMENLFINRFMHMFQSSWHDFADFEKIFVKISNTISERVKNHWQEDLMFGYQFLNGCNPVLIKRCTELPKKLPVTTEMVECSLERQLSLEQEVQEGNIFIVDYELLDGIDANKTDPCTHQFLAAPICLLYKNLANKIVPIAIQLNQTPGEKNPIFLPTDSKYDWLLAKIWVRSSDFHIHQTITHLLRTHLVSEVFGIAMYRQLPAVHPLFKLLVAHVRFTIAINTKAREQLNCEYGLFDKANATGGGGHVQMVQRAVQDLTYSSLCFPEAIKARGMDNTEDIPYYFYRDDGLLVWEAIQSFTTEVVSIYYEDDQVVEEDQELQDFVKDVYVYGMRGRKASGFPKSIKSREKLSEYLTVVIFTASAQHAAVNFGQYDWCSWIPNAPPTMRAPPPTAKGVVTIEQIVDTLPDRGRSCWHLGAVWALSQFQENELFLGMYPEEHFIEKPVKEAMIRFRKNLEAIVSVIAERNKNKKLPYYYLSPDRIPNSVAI
property: IC50
Write down the value, and be sure its unit follows.

Kindly note the recorded IC50 for CC(=O)Oc1cccc2cc(C(=O)NCCN3CCN(CCSC(c4ccncc4)c4ccc(Cl)cc4)CC3)c(O)cc12 (stereo not shown) , which is 300 nM

These measurements were taken from patent US5324728A.
